Test system: SK-OV-3
Test: Cytotoxicity against human SKOV3 cells by SRB assay
Type: functional
property-measured: log10 GI50 (log10 of the value in nM)

{"structure-notation": "COc1cc(/C=C\\c2ccc(OC)c(OP(=O)(O)O)c2O)cc(OC)c1OC", "log10 GI50": 0.41}
{"structure-notation": "COc1cc(/C=C/c2ccc(OC)c(OP(=O)(O)O)c2O)cc(OC)c1OC", "log10 GI50": 2.83}
{"structure-notation": "COc1ccc(/C=C/c2cc(OC)c(OC)c(OC)c2)c(O)c1O", "log10 GI50": 3.36}
{"structure-notation": "COc1ccc(/C=C\\c2cc(OC)c(OC)c(OC)c2)c(O)c1O", "log10 GI50": 1.58}
{"structure-notation": "COc1cc(/C=C\\c2ccc(OC)c(OP(=O)(O)O)c2OP(=O)(O)O)cc(OC)c1OC", "log10 GI50": 0.01}
{"structure-notation": "COc1ccc(/C=C/c2cc(OC)c(OC)c(OC)c2)c(OP(=O)(O)O)c1O", "log10 GI50": 2.67}
{"structure-notation": "COc1ccc(/C=C\\c2cc(OC)c(OC)c(OC)c2)c(OP(=O)(O)O)c1O", "log10 GI50": 0.21}
